Experiment: chemical genetic growth profiling, strain panel (AID 1159580);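 further: tested at 20 µM; growth read once vehicle control cultures reached saturation at 30 °C; 1 = growth at the plate median or of vehicle wells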
Conditions: S. cerevisiae deletion strains, growth OD, locus YDL134C, strain PPH21
Among all 5,500 compounds or so, about 2,000 (36%) were called active. Roughly 18% stayed inconclusive and do not appear here. No stated cut-off is given here; in the data, active means normalized growth mostly below about 0.91 (no sharp cut-off); inconclusive means no clear call, values can overlap the other calls; inactive means mostly above about 0.92. The list shows a part of the results.
Hi! Could you answer with just one of these? active, inactive

Please review the entries below; each comes with its answer.
>  <compound>
CCCCCCCCCCCCCC(=O)OC1C(C)C2(O)C(C=C(CO)CC3(O)C(=O)C(C)=CC32)C2C(C)(C)C12OC(C)=O (stereo not given)

>  <class_assignment>
inactive

$$$$
>  <compound>
O=NN(CCCl)C(=O)NCCCl

>  <class_assignment>
inactive

$$$$
>  <compound>
Cc1nnc(NS(=O)(=O)c2ccc(N)cc2)s1

>  <class_assignment>
inactive

$$$$
>  <compound>
CC(=O)N[C@@H](CCC(=O)O)C(=O)O

>  <class_assignment>
inactive

$$$$

Continue with the next compound.
How was Brc1cccc(C=NCc2ccccc2)c1 classified in this test? active

###

Assay: chemical genetic growth profiling, strain panel (AID 1159580);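 further: tested at 20 µM; growth read once vehicle control cultures reached saturation at 30 °C; 1 = growth at the plate median or of vehicle wells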
Details: S. cerevisiae deletion strains, growth OD, locus YGL227W, strain vid30, stronger effect = lower value
Screen size: about 5,500 compounds; about 2,000 (36%) were called active. About 18% were inconclusive and are not listed. The list shows a part of the results.
The reader will find reported normalized growth values listed item by item below.
Keep it simple and answer with nothing but the number.

>  <compound>
O=C(O)COc1ccc(Cl)cc1Cl

>  <reported_endpoint>
normalized growth

>  <result_number>
0.987

$$$$
>  <compound>
CC(=O)C1CC[C@H]2C3CC[C@H]4C[C@H](O)CC[C@]4(C)C3CC[C@]12C (stereo not given in full)

>  <reported_endpoint>
normalized growth

>  <result_number>
1.01

$$$$
>  <compound>
CC1CCC(NC(=O)N(CCCl)N=O)CC1 (stereo not given)

>  <reported_endpoint>
normalized growth

>  <result_number>
0.07

$$$$
>  <compound>
Cc1nnc(NS(=O)(=O)c2ccc(N)cc2)s1

>  <reported_endpoint>
normalized growth

>  <result_number>
1.01

$$$$
>  <compound>
C[C@H]1C[C@@H](O)[C@]2(O)[C@@]13CC(=O)OC[C@@]2(C)[C@](C)(O)C(=O)C3

>  <reported_endpoint>
normalized growth

>  <result_number>
1.03

$$$$

Name the recorded normalized growth for CN1CCC[C@@H]1CCO[C@](C)(c1ccccc1)c1ccc(Cl)cc1 . 0.996

Name the recorded normalized growth for CC(=O)O[C@H]1C[C@@]2(C)[C@@H](C[C@@H](O)C3[C@]2(C)CC[C@H]2[C@H](C)[C@H](O)CC[C@]32C)/C1=C(/CCC=C(C)C)C(=O)O (stereo not given in full) . 1.01

Name the recorded normalized growth for NCC[C@@H](O)C(=O)N[C@@H]1C[C@H](N)[C@@H](O[C@H]2O[C@H](CN)[C@@H](O)[C@H](O)[C@H]2O)[C@H](O)[C@H]1O[C@H]1O[C@H](CO)[C@@H](O)[C@H](N)C1O (stereo not given in full) . 1.05

Name the recorded normalized growth for O=c1oc2ccccc2cc1O . 0.995

Name the recorded normalized growth for CCCCC(=O)O[C@]1(C(=O)CO)CCC2C3CCC4=CC(=O)CC[C@]4(C)C3[C@@H](O)C[C@@]21C (stereo not given in full) . 0.984
